B1: HSP90AB1 (parent)
chain: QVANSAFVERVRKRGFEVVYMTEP

- Variants of: B1
- METHOD_DESCRIPTION: protein stability index of a GFP-peptide fusion (GPS, HEK-293T) (PSI 1-6); higher = more stable;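 also: lentivirally expressed fusions sorted by FACS into six bins by GFP to DsRed ratio, PSI derived from sequencing read proportions per bin multiplied by bin number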
- CONDITION_DESCRIPTION: c terminus: a fixed tail appended
Note to self: values exactly at 2 are Y. So protein stability index at or above 2 is Y, below is N.

> print(dat)
    mutant.name  class.assignment
 1          N4T                 N
 2         T22A                 Y
 3         R10M                 N
 4         F16I                 Y
 5         Y20H                 Y
 6          A6E                 Y
 7          E9Q                 N
 8          A6G                 Y
 9         E17A                 N
10         V18Q                 Y
11         E17N                 Y
12          S5N                 Y
13         R14Q                 Y
14         M21D                 Y
15         R12E                 Y
16         R10F                 N
17         R14K                 Y
18         V19M                 N
19          N4I                 Y
